Where these numbers come from: patent US12551573B2

Provide the reported Percent reduction in PCSK9 secretion of each item.
- Tested on: human PCSK9 locus
- assay-explanation: Secreted PCSK9 by ELISA (normalized to total cell count) in Huh7 cells transfected with mRNA and gRNA
- Format: cell-based
- protocol-conditions: 25 ng mRNA:12.5 ng gRNA; paired with LTRP5-ADD-ZIM3 mRNA; Huh7 cells; 6 days post-transfection; relative to non-targeting gRNA control
Respond numerically; units are % and should not be typed.

Give Percent reduction in PCSK9 secretion for the following substance: TG-06-345 (guide GCCUCGCCGCGGCACAGGUG; listed as RNA, chemistry not given here)
20.26

Give Percent reduction in PCSK9 secretion for the following substance: CGCGCCCUGCUCCUGAACUU (listed as RNA, chemistry not given here) [spacer 6.160, Exon 1]
31.69

Give Percent reduction in PCSK9 secretion for the following substance: TG-06-350 (guide GUGUCAUAAAGAAAUUGCCU; listed as RNA, chemistry not given here)
4.74

Give Percent reduction in PCSK9 secretion for the following substance: GCAGCGACGUCGAGGCGCUC (listed as RNA, chemistry not given here) [spacer 6.155, Exon 1]
20.89

Give Percent reduction in PCSK9 secretion for the following substance: AGAAAGAGCAAGCCUCAUGU (listed as RNA, chemistry not given here) [spacer 6.125, Promoter]
35.28

Give Percent reduction in PCSK9 secretion for the following substance: GUUAAUGUUUAAUCAGAUAG (listed as RNA, chemistry not given here) [spacer 6.153, Promoter]
21.52

Give Percent reduction in PCSK9 secretion for the following substance: GCUCCUGCACAGUCCUCCCC (listed as RNA, chemistry not given here) [spacer 6.161, Exon 1]
25.38

Give Percent reduction in PCSK9 secretion for the following substance: TG-06-002 (guide ACCGCUGCGCCAAGGUGCGG; listed as RNA, chemistry not given here)
16.71

Give Percent reduction in PCSK9 secretion for the following substance: Non-targeting (guide CGAGACGTAATTACGTCTCG; chemistry not given here)
0

Give Percent reduction in PCSK9 secretion for the following substance: GCCUCGCCCUCCCCAAACAG (listed as RNA, chemistry not given here) [spacer 6.152, Promoter]
19.39

Give Percent reduction in PCSK9 secretion for the following substance: ACUGGCCUUAACCUGGCAGC (listed as RNA, chemistry not given here) [spacer 6.141, Promoter]
82.34

Give Percent reduction in PCSK9 secretion for the following substance: CGGGGUUGGGAGACCCGGAG (listed as RNA, chemistry not given here) [spacer 6.169, Intron 1]
12.2

Give Percent reduction in PCSK9 secretion for the following substance: TG-06-1046 (guide UCUCUUACAUGGGGGGAAAC; listed as RNA, chemistry not given here)
7.05

Give Percent reduction in PCSK9 secretion for the following substance: AAACUUAGCCUGGACCCCCU (listed as RNA, chemistry not given here) [spacer 6.140, Promoter]
15.87

---

- Tested on: human PCSK9 locus
- assay-explanation: Secreted PCSK9 by ELISA (normalized to total cell count) in Huh7 cells transfected with mRNA and gRNA
- Assay type: cell-based
- protocol-conditions: 50 ng mRNA:25 ng gRNA; paired with LTRP5-ADD-ZIM3 mRNA; Huh7 cells; 6 days post-transfection; normalized to total cell count
Secreted PCSK9 of 50 ng/mL or higher: TRUE. Under 50 ng/mL: FALSE.

Exam item: decide whether the reported Secreted PCSK9 for TG-06-344 (guide CAGUUUCUGCCUCGCCGCGG; listed as RNA, chemistry not given here) is at least 50 ng/mL.
TRUE

Exam item: decide whether the reported Secreted PCSK9 for AAACUUAGCCUGGACCCCCU (listed as RNA, chemistry not given here) [spacer 6.140, Promoter] is at least 50 ng/mL.
TRUE

Exam item: decide whether the reported Secreted PCSK9 for CCUUUGUUUCUUCCCAGUAU (listed as RNA, chemistry not given here) [spacer 6.122, Promoter] is at least 50 ng/mL.
TRUE

Exam item: decide whether the reported Secreted PCSK9 for GAAGUCUCACUGGUCAGCAG (listed as RNA, chemistry not given here) [spacer 6.146, Promoter] is at least 50 ng/mL.
FALSE

Exam item: decide whether the reported Secreted PCSK9 for GCAGCGACGUCGAGGCGCUC (listed as RNA, chemistry not given here) [spacer 6.155, Exon 1] is at least 50 ng/mL.
FALSE

Exam item: decide whether the reported Secreted PCSK9 for TG-06-002 (guide ACCGCUGCGCCAAGGUGCGG; listed as RNA, chemistry not given here) is at least 50 ng/mL.
TRUE

Exam item: decide whether the reported Secreted PCSK9 for UGGGUCCACCUUGUCUCCUG (listed as RNA, chemistry not given here) [spacer 6.145, Promoter] is at least 50 ng/mL.
FALSE

Exam item: decide whether the reported Secreted PCSK9 for GGAAAGCUGAGCUUGUGCCU (listed as RNA, chemistry not given here) [spacer 6.135, Promoter] is at least 50 ng/mL.
FALSE

Exam item: decide whether the reported Secreted PCSK9 for UCCCUCUGCGCGUAAUCUGA (listed as RNA, chemistry not given here) [spacer 6.150, Promoter] is at least 50 ng/mL.
FALSE

Exam item: decide whether the reported Secreted PCSK9 for TG-06-343 (guide CCCCAUGUAAGAGAGGAAGU; listed as RNA, chemistry not given here) is at least 50 ng/mL.
TRUE

Exam item: decide whether the reported Secreted PCSK9 for GCCAGGCCGUCCUCCUCGGA (listed as RNA, chemistry not given here) [spacer 6.4, Exon 1] is at least 50 ng/mL.
TRUE

Exam item: decide whether the reported Secreted PCSK9 for GGGUCUGAGCCUGGAGGAGU (listed as RNA, chemistry not given here) [spacer 6.157, Exon 1] is at least 50 ng/mL.
FALSE

Exam item: decide whether the reported Secreted PCSK9 for UCCCAGUAUCGACAGCCCUU (listed as RNA, chemistry not given here) [spacer 6.123, Promoter] is at least 50 ng/mL.
FALSE

Exam item: decide whether the reported Secreted PCSK9 for CCUUUUCAUCCUCCUGCCUG (listed as RNA, chemistry not given here) [spacer 6.126, Promoter] is at least 50 ng/mL.
FALSE

Exam item: decide whether the reported Secreted PCSK9 for GUGUUUCCUGGGUCCACCUU (listed as RNA, chemistry not given here) [spacer 6.147, Promoter] is at least 50 ng/mL.
TRUE

Exam item: decide whether the reported Secreted PCSK9 for TG-06-342 (guide AAUUACAGGCAACAGGAAGG; listed as RNA, chemistry not given here) is at least 50 ng/mL.
TRUE

Exam item: decide whether the reported Secreted PCSK9 for GGAGCAGGGCGCGUGAAGGG (listed as RNA, chemistry not given here) [spacer 6.158, Exon 1] is at least 50 ng/mL.
FALSE

Exam item: decide whether the reported Secreted PCSK9 for AGGGAUUUAUACUACAAAGA (listed as RNA, chemistry not given here) [spacer 6.138, Promoter] is at least 50 ng/mL.
FALSE

Exam item: decide whether the reported Secreted PCSK9 for CGCGCCCUGCUCCUGAACUU (listed as RNA, chemistry not given here) [spacer 6.160, Exon 1] is at least 50 ng/mL.
FALSE

---

- System: human PCSK9 locus
- assay-explanation: Secreted PCSK9 by ELISA (normalized to total cell count) in Huh7 cells transfected with mRNA and gRNA
- Assay type: cell-based
- protocol-conditions: 25 ng mRNA:12.5 ng gRNA; paired with LTRP5-ADD-ZIM3 mRNA; Huh7 cells; 6 days post-transfection; normalized to total cell count
Provide the reported Secreted PCSK9 of each item.
Respond numerically; units are ng/mL and should not be typed.

Give Secreted PCSK9 for the following substance: GCCAGGCCGUCCUCCUCGGA (listed as RNA, chemistry not given here) [spacer 6.4, Exon 1]
73.05

Give Secreted PCSK9 for the following substance: CAGUAUCGACAGCCCUUCCA (listed as RNA, chemistry not given here) [spacer 6.124, Promoter]
30.59

Give Secreted PCSK9 for the following substance: AGAAAGAGCAAGCCUCAUGU (listed as RNA, chemistry not given here) [spacer 6.125, Promoter]
46.11

Give Secreted PCSK9 for the following substance: GAGGAGGACGGCCUGGCCGA (listed as RNA, chemistry not given here) [spacer 6.1, Exon 1]
32.86

Give Secreted PCSK9 for the following substance: AGAAGAUUCAAUUUGCAAAG (listed as RNA, chemistry not given here) [spacer 6.132, Promoter]
75.01

Give Secreted PCSK9 for the following substance: AGAAAUCAACUGGACAAGCA (listed as RNA, chemistry not given here) [spacer 6.128, Promoter]
62.29

Give Secreted PCSK9 for the following substance: GCAGCGACGUCGAGGCGCUC (listed as RNA, chemistry not given here) [spacer 6.155, Exon 1]
56.36

Give Secreted PCSK9 for the following substance: GUUAAUGUUUAAUCAGAUAG (listed as RNA, chemistry not given here) [spacer 6.153, Promoter]
86.58

Give Secreted PCSK9 for the following substance: CCUUUUCAUCCUCCUGCCUG (listed as RNA, chemistry not given here) [spacer 6.126, Promoter]
44.82

Give Secreted PCSK9 for the following substance: GAAGUCUCACUGGUCAGCAG (listed as RNA, chemistry not given here) [spacer 6.146, Promoter]
20.34

Give Secreted PCSK9 for the following substance: TG-06-342 (guide AAUUACAGGCAACAGGAAGG; listed as RNA, chemistry not given here)
75.23

Give Secreted PCSK9 for the following substance: GUGGGCAGCGAGGAGUCCAC (listed as RNA, chemistry not given here) [spacer 6.144, Promoter]
29

Give Secreted PCSK9 for the following substance: UCCCAGUAUCGACAGCCCUU (listed as RNA, chemistry not given here) [spacer 6.123, Promoter]
51.32

Give Secreted PCSK9 for the following substance: UCGGCCUCCGGGUCUCCCAA (listed as RNA, chemistry not given here) [spacer 6.170, Intron 1]
72.96

Give Secreted PCSK9 for the following substance: CAGUACGUUCCAGGCAUUCA (listed as RNA, chemistry not given here) [spacer 6.171, Intron 1]
55.95

Give Secreted PCSK9 for the following substance: CUCUGCGCGUAAUCUGACGC (listed as RNA, chemistry not given here) [spacer 6.151, Promoter]
66.42

Give Secreted PCSK9 for the following substance: TG-06-347 (guide CUCCUUCACCCACCUGUGCC; listed as RNA, chemistry not given here)
51.83

Give Secreted PCSK9 for the following substance: GUGUUUCCUGGGUCCACCUU (listed as RNA, chemistry not given here) [spacer 6.147, Promoter]
37.43

Give Secreted PCSK9 for the following substance: AGGAGCAGCUAGUUGGUAAG (listed as RNA, chemistry not given here) [spacer 6.139, Promoter]
25.45

Give Secreted PCSK9 for the following substance: TG-06-249 (guide AAACCAAAUCGGAACCCACU; listed as RNA, chemistry not given here)
82.36

Give Secreted PCSK9 for the following substance: AGGGAUUUAUACUACAAAGA (listed as RNA, chemistry not given here) [spacer 6.138, Promoter]
30.87

Give Secreted PCSK9 for the following substance: GGAAAGCUGAGCUUGUGCCU (listed as RNA, chemistry not given here) [spacer 6.135, Promoter]
44.59
